src = patent US12606557B2

METHOD DESCRIPTION: Blood pharmacokinetics after a single intraperitoneal dose
Type: in vivo, male CD1 mice
CONDITIONS: male, CD1, mouse, in vivo, 52 mg/kg, 52 mg/kg IP, 4 hr
READOUT LABEL: concentration at 4 hr (ng/mL)
Give your result in ng/mL as a bare value.

In: Sample COc1ccc(Cn2ccc3ccc(C(=O)NO)cc32)cc1 — what was its concentration at 4 hr?
Out: 238

====

METHOD DESCRIPTION: Blood pharmacokinetics after a single intraperitoneal dose
Assay type: in vivo, male CD1 mice
CONDITIONS: male, CD1, mouse, in vivo, 10.4 mg/kg, 10.4 mg/kg IP, 0.08 hr; read-out: Blood Concentration, Mean
READOUT LABEL: concentration at 0.08 hr (ng/mL)
Give your result in ng/mL as a bare value.

In: Sample COc1ccc(Cn2ccc3ccc(C(=O)NO)cc32)cc1 — what was its concentration at 0.08 hr?
Out: 1990

====

METHOD DESCRIPTION: Plasma pharmacokinetics after a single intraperitoneal dose
Type: in vivo, male CD1 mice
CONDITIONS: male, CD1, mouse, plasma, intraperitoneal, 10 mg/kg, 10 mg/kg IP, 0.25 hr; read-out: Plasma Concentration, Mean
READOUT LABEL: concentration at 0.25 hr (ng/mL)
Give your result in ng/mL as a bare value.

In: Sample COc1ccc(Cn2ccc3ccc(C(=O)NS(C)(=O)=O)cc32)cc1 — what was its concentration at 0.25 hr?
Out: 30200

====

METHOD DESCRIPTION: Plasma pharmacokinetics after a single intraperitoneal dose
Format: in vivo, male CD1 mice
CONDITIONS: male, CD1, mouse, plasma, intraperitoneal, 50 mg/kg, 50 mg/kg IP, 4 hr; read-out: Plasma Concentration, individual animal
Protocol: The objective of this example was to investigate the plasma pharmacokinetics of UPHH-000171 following a single intraperitoneal dose administration to male CD1 mice at 10 and 50 mg/kg. Eighteen male mice were divided in to two groups with nine animals in each group, Animals in Group 1 and Group 2 were administered with solution formulation of UPHH-000171 in 5% NMP, 25% Solutol HS-15 and 70% normal saline intraperitoneally at 10 and 50 mg/kg dose, respectively. […]
READOUT LABEL: concentration at 4 hr (µg/mL)
Give your result in µg/mL as a bare value.

In: Sample COc1ccc(Cn2ccc3ccc(C(=O)NS(C)(=O)=O)cc32)cc1 — what was its concentration at 4 hr?
Out: 128

====

METHOD DESCRIPTION: Blood pharmacokinetics after a single intraperitoneal dose
Type: in vivo, male CD1 mice
CONDITIONS: male, CD1, mouse, in vivo, 52 mg/kg, 52 mg/kg IP, 8 hr; read-out: Blood Concentration, individual animal
READOUT LABEL: concentration at 8 hr (ng/mL)
Give your result in ng/mL as a bare value.

In: Sample COc1ccc(Cn2ccc3ccc(C(=O)NO)cc32)cc1 — what was its concentration at 8 hr?
Out: 160

====

METHOD DESCRIPTION: Plasma pharmacokinetics after a single intraperitoneal dose
Format: in vivo, male CD1 mice
CONDITIONS: male, CD1, mouse; 50 mg/kg IP, plasma
READOUT LABEL: Tmax (h)
Give your result in h as a bare value.

In: Sample COc1ccc(Cn2ccc3ccc(C(=O)NS(C)(=O)=O)cc32)cc1 — what was its Tmax?
Out: 1

====

METHOD DESCRIPTION: Plasma pharmacokinetics after a single intraperitoneal dose
Format: in vivo, male CD1 mice
CONDITIONS: male, CD1, mouse, plasma, intraperitoneal, 50 mg/kg, 50 mg/kg IP, 8 hr; read-out: Plasma Concentration, individual animal
READOUT LABEL: concentration at 8 hr
Form field: result (number plus unit)

In: Sample COc1ccc(Cn2ccc3ccc(C(=O)NS(C)(=O)=O)cc32)cc1 [UPHH-000171] — what was its concentration at 8 hr?
Out: 102 µg/mL
